targetOrTestSystem: Human Cbl-b (residues 40-426) (Homo sapiens (Human), UniProt Q13191)
Sequence (Q13191 40-426): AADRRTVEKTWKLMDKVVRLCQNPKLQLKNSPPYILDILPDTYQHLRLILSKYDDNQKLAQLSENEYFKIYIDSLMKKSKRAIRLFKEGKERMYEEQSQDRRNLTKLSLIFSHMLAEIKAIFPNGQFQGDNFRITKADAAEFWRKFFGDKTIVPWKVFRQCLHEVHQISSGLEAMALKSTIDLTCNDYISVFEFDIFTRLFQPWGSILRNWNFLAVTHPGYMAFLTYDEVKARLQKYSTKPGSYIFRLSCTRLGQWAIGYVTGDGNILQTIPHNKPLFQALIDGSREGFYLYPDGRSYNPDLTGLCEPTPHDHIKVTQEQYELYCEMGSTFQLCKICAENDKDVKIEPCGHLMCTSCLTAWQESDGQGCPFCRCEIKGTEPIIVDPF
testMethodNotes: Cbl-b SPR assay
Type: binding
cond: C-cbl SPR Kd vs Cbl-b SPR Kd
Below, each of the molecules is paired with its reported Fold of selectivity value.
observable: Fold of selectivity (×)

Cn1cnnc1[C@@H](c1cc(F)cc(N2Cc3c(cc(CNC4(C)CCC4)cc3C(F)(F)F)C2=O)c1)C1COC1 (single isomer, unassigned): 6.5
Cn1cnnc1[C@@H](c1cccc(N2Cc3c(cc(CNCC(C)(C)F)cc3C(F)(F)F)C2=O)c1)C1COC1: 5.2
Cn1cnnc1C(F)(c1cccc(N2Cc3c(cc(CNC4(C)CCC4)cc3C(F)(F)F)C2=O)c1)C1(F)COC1 (stereo in doubt) [Compound 403]: 1.0
Cn1cnnc1C1(c2cccc(N3Cc4c(cc([C@@H](CO)NC5(C)CCC5)cc4C(F)(F)F)C3=O)c2)CCC1 (single isomer, unassigned): 4.7
CO[C@H]1C[C@@](c2cccc(N3Cc4c(cc(CN5CCN(C)C[C@@H]5C(C)C)cc4C(F)(F)F)C3=O)c2)(c2nncn2C)C1 (single isomer, unassigned): 4.7
Cn1cnnc1[C@@H](c1cccc(N2Cc3c(cc(CNC4(C)CCC4)cc3C(F)(F)F)C2=O)c1)C1CCCC1: 14
